# pIC50 listing for each entry below
biological target: Abl WT (Homo sapiens (Human), UniProt P00519); assay: Reaction Biology Corp. kinase assay, Abl WT; type: biochemical; conditions: compounds tested by Reaction Biology Corp., ATP at 10 μM; read-out: IC50 on kinase Abl WT (category)
Sequence (P00519 whole entry): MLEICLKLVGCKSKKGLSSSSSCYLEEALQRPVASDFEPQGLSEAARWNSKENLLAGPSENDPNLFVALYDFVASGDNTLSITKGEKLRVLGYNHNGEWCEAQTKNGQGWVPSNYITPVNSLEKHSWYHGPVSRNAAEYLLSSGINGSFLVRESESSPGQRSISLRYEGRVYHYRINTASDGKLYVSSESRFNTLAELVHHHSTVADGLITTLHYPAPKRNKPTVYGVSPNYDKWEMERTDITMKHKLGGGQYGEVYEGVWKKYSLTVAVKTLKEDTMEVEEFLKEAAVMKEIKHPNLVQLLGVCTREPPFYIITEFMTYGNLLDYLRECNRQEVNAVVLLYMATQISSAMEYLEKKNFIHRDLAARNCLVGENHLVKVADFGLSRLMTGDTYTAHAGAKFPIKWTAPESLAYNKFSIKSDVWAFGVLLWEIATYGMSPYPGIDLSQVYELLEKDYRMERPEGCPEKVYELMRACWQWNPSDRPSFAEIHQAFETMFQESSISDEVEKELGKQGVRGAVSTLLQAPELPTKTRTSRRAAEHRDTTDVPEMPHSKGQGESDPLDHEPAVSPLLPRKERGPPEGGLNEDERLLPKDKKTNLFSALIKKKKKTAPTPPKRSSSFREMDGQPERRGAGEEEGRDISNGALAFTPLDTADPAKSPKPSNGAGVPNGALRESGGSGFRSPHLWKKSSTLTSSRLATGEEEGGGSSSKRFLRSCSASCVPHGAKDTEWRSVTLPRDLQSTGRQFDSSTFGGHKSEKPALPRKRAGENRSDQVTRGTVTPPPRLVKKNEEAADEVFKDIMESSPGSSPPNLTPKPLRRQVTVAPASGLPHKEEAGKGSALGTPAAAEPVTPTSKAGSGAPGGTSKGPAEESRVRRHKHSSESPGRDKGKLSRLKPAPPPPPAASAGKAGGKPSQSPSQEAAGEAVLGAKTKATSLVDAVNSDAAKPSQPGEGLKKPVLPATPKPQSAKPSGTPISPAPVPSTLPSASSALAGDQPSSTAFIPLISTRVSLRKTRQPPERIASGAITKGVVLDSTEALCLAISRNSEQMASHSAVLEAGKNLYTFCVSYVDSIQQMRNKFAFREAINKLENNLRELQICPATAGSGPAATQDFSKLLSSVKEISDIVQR
pIC50: −log10 of the molar value.

COC(=O)c1cc2cc(NC(=O)c3c(Cl)cccc3Cl)cnc2[nH]1 [ND0072]; 7.00 to 9.00
COC(=O)c1cc2cc(NCc3cc[nH]n3)cnc2[nH]1 [ND0098]; 5.00 to 7.00
COC(=O)c1cc2cc(NC(=O)c3cc(NC(=O)c4ccc(CN5CCC(N(C)C)C5)c(C(F)(F)F)c4)ccc3C)cnc2[nH]1 (stereo not shown) [ND0119]; > 9.00
COC(=O)c1cc2cc(NCc3ccccc3C)cnc2[nH]1 [ND0090]; 7.00 to 9.00
COC(=O)c1cc2cc(NC(=O)c3cc(C)n[nH]3)cnc2[nH]1 [ND0085]; 5.00 to 7.00
COC(=O)c1cc2cc(NCc3ccccc3Br)cnc2[nH]1 [ND0057]; 5.00 to 7.00
COC(=O)c1cc2cc(NCc3ccccc3OC)cnc2[nH]1 [ND0088]; 5.00 to 7.00
COC(=O)c1cc2cc(NC(=O)c3c(C)cccc3Cl)cnc2[nH]1 [ND0074]; 7.00 to 9.00
COC(=O)c1cc2cc(NCc3cc(NC(=O)c4ccc(CN5CCN(C)CC5)cc4)ccc3C)cnc2[nH]1 [ND0118]; > 9.00

Could you now consider this next compound?
INPUT: Can you share its pIC50? I mean this compound: COC(=O)c1cc2cc(NCc3cccs3)cnc2[nH]1 [ND0093]
OUTPUT: 5.00 to 7.00

###

Recorded pIC50, one value per entry.
target: Abl WT (Homo sapiens (Human)); experiment: Reaction Biology Corp. kinase assay, Abl WT; type: biochemical; conditions: compounds tested by Reaction Biology Corp., ATP at 10 μM; read-out: IC50 on kinase Abl WT (category)
pIC50: −log10 of the molar value.

Worked examples, 8 molecules total:
COC(=O)c1cc2cc(NCc3nccs3)cnc2[nH]1; 5.00 to 7.00
COC(=O)c1cc2cc(NCc3c(C)cccc3Cl)cnc2[nH]1; 7.00 to 9.00
COC(=O)c1cc2cc(NC(=O)c3ccccc3C)cnc2[nH]1; 5.00 to 7.00
COC(=O)c1cc2cc(NC(=O)c3ccc4[nH]ccc4c3)cnc2[nH]1; 5.00 to 7.00
COC(=O)c1cc2cc(NCc3ccccc3C(F)(F)F)cnc2[nH]1; 5.00 to 7.00
COC(=O)c1cc2cc(NCc3c(Cl)cccc3Cl)cnc2[nH]1; 7.00 to 9.00
COC(=O)c1cc2cc(NC(=O)c3ccccc3C(F)(F)F)cnc2[nH]1; 7.00 to 9.00
COC(=O)c1cc2cc(NCc3ccc4[nH]ccc4c3)cnc2[nH]1; 7.00 to 9.00

Next item in the queue.
INPUT: Suppose we examine the molecule COC(=O)c1cc2cc(NC(=O)c3cc(NC(=O)c4ccc(CN5CCN(C)CC5)cc4)ccc3C)cnc2[nH]1 ; what pIC50 value has been reported?
OUTPUT: > 9.00

###

target: Abl WT (Homo sapiens (Human), UniProt P00519); assay: Reaction Biology Corp. kinase assay, Abl WT; type: biochemical; conditions: 10 μM; compounds tested by Reaction Biology Corp.; read-out: % inhibition of kinase activity, Abl WT (category)
Each entry below carries its reported inhibition at 10 µM.

Some solved cases for reference:
COC(=O)c1cc2cc(NC(=O)c3cccc(S(=O)(=O)NCc4ccco4)c3)cnc2[nH]1 [ND0086]; 10 to 50%
COC(=O)c1cc2cc(NC(=O)c3cc(NC(=O)c4ccc(CN5CCC(N(C)C)C5)c(C(F)(F)F)c4)ccc3C)cnc2[nH]1 (stereo not shown) [ND0119]; > 50%
COC(=O)c1cc2cc(NCc3c(Cl)cccc3Cl)cnc2[nH]1 [ND0087]; > 50%
COC(=O)c1cc2cc(NCc3cccs3)cnc2[nH]1 [ND0093]; > 50%
COC(=O)c1cc2cc(NCc3ccccc3C)cnc2[nH]1 [ND0090]; > 50%
COC(=O)c1cc2cc(Nc3ccncc3)cnc2[nH]1 [ND0058]; 10 to 50%

INPUT: Report inhibition at 10 µM for COC(=O)c1cc2cc(NCc3ccccc3OC)cnc2[nH]1 [ND0088] tested on Abl WT (Homo sapiens (Human), UniProt P00519).
OUTPUT: > 50%

INPUT: Observed inhibition at 10 µM on Abl WT (Homo sapiens (Human), UniProt P00519) for COC(=O)c1cc2cc(NC(=O)c3ccccc3C)cnc2[nH]1 [ND0076] , please.
OUTPUT: > 50%

INPUT: Recorded inhibition at 10 µM for COC(=O)c1cc2cc(NCc3ccc(S(N)(=O)=O)cc3)cnc2[nH]1 [ND0101] with Abl WT (Homo sapiens (Human), UniProt P00519), please?
OUTPUT: > 50%

INPUT: Record COC(=O)c1cc2cc(NC(=O)c3ccc4[nH]ccc4c3)cnc2[nH]1 [ND0082] : what is its inhibition at 10 µM with Abl WT (Homo sapiens (Human), UniProt P00519)?
OUTPUT: > 50%
